These data points were gathered from patent US9340577B2.

Biological target: B*0701 (Homo sapiens)
Test: biochemical
No end group written: not given here.

{"query.sequence": "APTKALRRV [15.089]", "IC50": "0.659 µM"}
{"query.sequence": "FPVRPQFPL", "IC50": "0.0095 µM"}
{"query.sequence": "EPISPIETV [15.073]", "IC50": "3.48 µM"}
{"query.sequence": "SPLLLSTTEQ [15.226]", "IC50": "21.6 µM"}
{"query.sequence": "SPTPLLYRL [15.053]", "IC50": "2.3 µM"}
{"query.sequence": "FPVRPQVPI", "IC50": "0.022 µM"}
{"query.sequence": "IPIPMSWAF", "IC50": "0.229 µM"}
{"query.sequence": "LPGCMFSIF", "IC50": "0.024 µM"}
{"query.sequence": "LPVCSFSIF", "IC50": "0.0087 µM"}

---

Target: A*0203 (Homo sapiens, UniProt P04439, A173T/D140Y/D185E/D98H/E277Q/G131W/G231S/I119V/I121R/I166T/I218V/L180W/L300P/L318F/N151K/N90K/P208A/P217A/Q86G/Q94H/R138H/R169H/T345S)
Assay: biochemical
Assay type: binding
No end group written: not given here.
Recorded IC50 by entry

{"query.sequence": "VQWAFDNEV [Peptide 86.0209]", "display.unit": "µM", "IC50": 4.52}
{"query.sequence": "FLQGCIISYA [Peptide 1578.18]", "display.unit": "µM", "IC50": 0.009}
{"query.sequence": "LQLSNDNRTLV [Peptide 9013.0307]", "display.unit": "µM", "IC50": 5.2}

---

Biological target: A*0202 (Homo sapiens, UniProt P04439, D140Y/D185E/D98H/E176V/E277Q/G131W/G231S/I119L/I121R/I166T/I218V/L180W/L300P/L318F/N151K/N90K/P208A/P217A/Q67R/Q86G/Q94H/R138H/R169H/T345S)
Experiment: biochemical
Assay type: binding
No end group written: not given here.
Recorded IC50 by entry

{"query.sequence": "RTLQQLLFI [Peptide 1525.11]", "IC50": "> 20 µM"}
{"query.sequence": "CLAHNSDTGL [Peptide 9013.0191]", "IC50": "0.013 µM"}
{"query.sequence": "VIKSDLVNEEV [Peptide 9013.0278]", "IC50": "0.057 µM"}
{"query.sequence": "GMIDDVTPI [Peptide 1578.24]", "IC50": "0.0002 µM"}
{"query.sequence": "FLSYFKLFL [Peptide 1578.37]", "IC50": "0.0021 µM"}

---

Target: A*0203 (Homo sapiens, UniProt P04439, A173T/D140Y/D185E/D98H/E277Q/G131W/G231S/I119V/I121R/I166T/I218V/L180W/L300P/L318F/N151K/N90K/P208A/P217A/Q86G/Q94H/R138H/R169H/T345S)
Assay: biochemical
Format: binding
No end group written: not given here.
hey, just use Condition met if measured IC50 is less than 8 nM, otherwise Condition not met

{"query.sequence": "SLACSWGMVV [Peptide 1578.02]", "cat": "Condition not met"}
{"query.sequence": "RLIIGYVIGT [Peptide 9013.0140]", "cat": "Condition not met"}
{"query.sequence": "FQFQNPFPL [Peptide 1578.40]", "cat": "Condition met"}
{"query.sequence": "ALYSWFVNGT [Peptide 9013.0173]", "cat": "Condition met"}
{"query.sequence": "KLMSQLLNI [Peptide 1578.29]", "cat": "Condition not met"}
